# experimental system: HIV-1 pseudovirus SC05.8C11.2344 (HIV-1)
# test summary: cell-based or functional assay
property name: IC50 (neutralization in TZM.bl cells) (µg/mL)

MS-84 (antibody, V domains shown) VH: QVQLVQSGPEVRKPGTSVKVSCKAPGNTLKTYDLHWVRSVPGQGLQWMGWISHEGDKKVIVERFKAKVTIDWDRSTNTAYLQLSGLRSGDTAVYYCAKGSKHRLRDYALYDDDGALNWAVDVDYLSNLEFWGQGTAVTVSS VL: DFVLTQSPLSLPVTPGEPASISCKSSHSLIHGDRNNYLAWYVQKPGQSPQLLIYLASSRASGVPDRFSGSGSDKDFTLKISRVEAEDVGVYYCMQGRESPWTFGQGTKVDIKR :: 0.481
